Percent Effect values by entry
# System: Mycobacterium tuberculosis
# method.notes: Cornell - Phenotypic assay to identify agents that inhibit growth of Mycobacterium tuberculosis
# Format: functional
# Set-up: scale not given: direction of the effect not stated beside the values
# test.conditions: 10 mM as filed; unlikely as a test dose
In all, about 53,000 compounds went through this assay and about 900 (1.7%) showed an effect of 50% or more. The sample holds strong results, similar compounds and a random draw of the others, so the mix is not that of the screen.
State just the number; it will be interpreted in %.

Answered cases to consult:
{"columns": ["compound", "quantitative.result"],
 "data": [
  ["Cc1ccc(-c2ccc(Cl)nn2)cc1S(N)(=O)=O", 6.758],
  ["Cc1ccc(NCC2(O)CCNCC2)cc1C", -25.1],
  ["CCCn1cc(-c2cc(-c3c[nH]cn3)c(C#N)c(N)n2)c(C)n1", 4.241]
]}

Under Mycobacterium tuberculosis: Percent Effect value of CCNC(=O)[C@H]1CN(Cc2ccccc2)C[C@@H]1C(=O)c1ccccc1 ?
41.32

Recorded Percent Effect for Cc1nnc(C2CCN(c3ccc(F)cc3)CC2)o1 with Mycobacterium tuberculosis, please?
0.33

* * *

# Tested on: Mycobacterium tuberculosis
# method.notes: Cornell - Phenotypic assay to identify agents that inhibit growth of Mycobacterium tuberculosis
# Format: functional
# Design: scale not given: direction of the effect not stated beside the values
# test.conditions: 10 mM as filed; unlikely as a test dose
Hit rate of the full screen: of about 53,000 compounds, about 900 (1.7%) showed an effect of 50% or more. Shown is part of a subset that was picked to be rich in strong results.
Each entry below carries its recorded Percent Effect.
Give a bare numeral; the unit % is implied.

Record excerpt, results attached:
{"columns": ["compound", "quantity.unit", "quantitative.result"],
 "data": [
  ["COCc1cc(CNCc2c(C)n(CC(N)=O)c3ccccc23)n[nH]1", "%", 35.48],
  ["COC(=O)c1sccc1S(=O)(=O)N1CCC(Oc2cnccn2)CC1", "%", 11.89],
  ["COc1ccc(C)cc1NC(=O)c1coc(C)n1", "%", 8.355],
  ["CC[C@H](N)C(=O)Nc1nn(CC(F)(F)F)c2cc(OC(C)C)ccc12", "%", 15.83],
  ["Cc1nc[nH]c1CN1CCN(C(=O)C2(C)CC2)[C@H]2CS(=O)(=O)C[C@H]21", "%", 10.63]
]}

So what's the measured Percent Effect for this one? CCOCc1cnc2n1CCN(C(=O)c1cccc3c1OCCO3)C2C (centres undefined)
-10.91

Quick one: Percent Effect for CNc1cc(C)nc(-c2cc(NC3CCNCC3)nc3[nH]ccc23)n1 ?
12.28

Which Percent Effect value is on record for O=C(c1ccoc1)N1CC[C@@H]2O[C@@H](COCc3ccncc3)CC[C@@H]21 ?
17.45

Name the recorded Percent Effect for Cc1nc(CCN2CCC(Oc3ccccc3F)CC2)c(C)s1 .
4.042

* * *

# Tested on: Mycobacterium tuberculosis
# method.notes: Cornell - Phenotypic assay to identify agents that inhibit growth of Mycobacterium tuberculosis
# Format: functional
# Set-up: scale not given: direction of the effect not stated beside the values
# test.conditions: 10 mM as filed; unlikely as a test dose
The whole screen tested about 53,000 compounds, of which about 900 (1.7%) showed an effect of 50% or more. What follows is part of a selection rich in strong results, with near analogues and random picks from the rest.
quantity.name: Percent Effect (%)
I only need the number, in %, no unit after it.

The examples below pair each entry with its known result.
{"columns": ["compound", "quantity.name", "quantitative.result"],
 "data": [
  ["COCCC(=O)N1CCCC1c1nc(C)c2c(n1)N(C)C(=O)CC2 (stereo unspecified)", "Percent Effect", 9.481],
  ["CN1CCC(NC(=O)Nc2ccc(Br)c(F)c2)C1=O (stereo unspecified)", "Percent Effect", 8.703],
  ["CN(CC1COc2ccccc2O1)C(=O)C1=NN(C)C(=O)CC1 (stereo unspecified)", "Percent Effect", 21.15]
]}

Given Cc1cc2nc(C(C)C)cc(N3CCN(c4ccc(O)cc4)CC3)n2n1 , state its recorded Percent Effect.
103.7

Please report the recorded Percent Effect for Cc1cc(NC(=O)Cc2ccccc2O)c[nH]c1=O .
77.58

* * *

# Tested on: Mycobacterium tuberculosis
# method.notes: Cornell - Phenotypic assay to identify agents that inhibit growth of Mycobacterium tuberculosis
# Format: functional
# Set-up: scale not given: direction of the effect not stated beside the values
# test.conditions: 10 mM as filed; unlikely as a test dose
Hit rate of the full screen: of about 53,000 compounds, about 900 (1.7%) showed an effect of 50% or more. The sample holds strong results, similar compounds and a random draw of the others, so the mix is not that of the screen.
Percent Effect under 10% gets 1.0, anything at or over 10% gets 0.0.

Known results for molecules:
{"columns": ["molecule", "cat"],
 "data": [
  ["CC(=O)N1CCCC1c1nc(CN(C)C(=O)C(C)C)cc(N(C)C)n1 (centres undefined)", 0.0],
  ["Cc1noc(NC(=O)c2ccc(C#N)cc2)n1", 0.0],
  ["Cc1cc(O)c(OCC(=O)/N=c2\\[nH]c(C)c(C)s2)cn1", 0.0],
  ["Cc1cnc(CN(C)Cc2cccc(OC(F)(F)F)c2)cn1", 1.0],
  ["Cc1ccc(C(=O)Nc2nc(C)no2)cc1", 0.0]
]}

Is it true that Percent Effect reported for COc1cc(OC)cc(-c2noc(CN)n2)c1 is less than 10%?
1.0

Please state whether Percent Effect is below 10% for Cl.O=C(Cn1c(-c2ccco2)cc2cccnc21)N1CCCC1
0.0

In plain terms, does CN(C)CCCNC(=O)c1ccccc1NC(=O)c1ccccc1Cl come in under 10% for Percent Effect?
1.0

Determine whether this molecule shows Percent Effect lower than 10% (ties excluded): Cn1nc(-c2cccc(Cl)c2)c(Br)c1C(=O)O
0.0

Would you kindly verify if Percent Effect of Cl.NCC(=O)N1CCCC1c1n[nH]cc1-c1ccccc1F (centres undefined) is strictly less than 10%?
1.0

Consider CCc1nnc(CN(C)c2nccc(CCC(F)(F)F)n2)o1 . Does its Percent Effect lie strictly below 10%?
1.0

Identify whether the molecule O[C@@H]1CN(c2cnc3ccccc3n2)CC[C@H]1c1ccc2c(c1)OCO2 records Percent Effect below 10%.
0.0

Regarding CCNC(=O)CCc1c(C)nc2cc(O)nn2c1C , kindly confirm whether its Percent Effect is beneath 10%.
1.0

* * *

Catalogue of Percent Effect readings, one per entry.
# System: Mycobacterium tuberculosis
# method.notes: Cornell - Phenotypic assay to identify agents that inhibit growth of Mycobacterium tuberculosis
# Format: functional
# Parameters: scale not given: direction of the effect not stated beside the values
# test.conditions: 10 mM as filed; unlikely as a test dose
The whole screen tested about 53,000 compounds, of which about 900 (1.7%) showed an effect of 50% or more. What follows is part of a selection rich in strong results, with near analogues and random picks from the rest.

Check out these entries, answers already filled in.
{"columns": ["compound", "result"],
 "data": [
  ["CSc1cccc(CNC(=O)[C@H]2CNC[C@@H](C(=O)N3CCOCC3)C2)c1", "-25.42%"],
  ["CCCOc1ccc(Cl)cc1C(=O)N1CCC(n2cncn2)CC1", "-8.806%"],
  ["Cc1nc(N2CCOCC2)nc(C)c1NS(=O)(=O)c1ccccc1", "18.03%"],
  ["Cc1nn(C)c2nc(-c3ccccn3)nc(NC[C@@H]3CCCO3)c12", "21.74%"],
  ["O=C(c1cccc2ccnn12)N1CCCC1Cn1cccn1 (stereo unspecified)", "2.312%"],
  ["Cc1ccc(C(=O)N2CCOC(c3ncc(CN(C)C)[nH]3)C2)cc1F (stereo unspecified)", "14.93%"],
  ["Cc1nc(N2CCCC2)nc(C)c1NS(C)(=O)=O", "7.192%"],
  ["CCOc1ccccc1C(=O)NCCc1ccoc1", "23.58%"],
  ["Cc1cc(CN(C)C2CCCN(Cc3noc(C4CC4)n3)C2)on1 (stereo unspecified)", "2.145%"],
  ["COc1ccc(S(=O)(=O)Nc2cnc(N(C)C)nc2)cc1", "-14.34%"]
]}

Given the entry CSCC[C@H](NC(=O)CCn1ccc2c(Cl)cccc21)C(=O)O , report its measured Percent Effect.
15.96%

If you can, please state the reported Percent Effect value of Cc1cc(NC(=O)CN2CCCC2Cn2nc(C)nc2C)on1 (stereo unspecified) .
9.67%

* * *

# System: Mycobacterium tuberculosis
# method.notes: Cornell - Phenotypic assay to identify agents that inhibit growth of Mycobacterium tuberculosis
# Type: functional
# Set-up: scale not given: direction of the effect not stated beside the values
# test.conditions: 10 mM as filed; unlikely as a test dose
In all, about 53,000 compounds went through this assay and about 900 (1.7%) showed an effect of 50% or more. The sample as a whole holds a higher share of strong results than the screen did.
Listing of entries alongside the reported Percent Effect.
Respond with the bare value in %.

The following molecules have reported results that may help.
{"columns": ["molecule", "quantity.name", "quantitative.result"],
 "data": [
  ["Cc1ccccc1CN1CCOC(c2nccc(CN(C)C)n2)C1 (stereo unspecified)", "Percent Effect", -48.65],
  ["Cc1cccc(CN2CC[C@@H]3[C@@H]2CCN3C(=O)Cc2cccs2)n1.O=C(O)C(F)(F)F.O=C(O)C(F)(F)F", "Percent Effect", 14.31],
  ["O=C(Nc1cccnc1)[C@H]1C[C@H]2OCC[C@H]2N(Cc2ccc(F)cc2)C1.O=C(O)C(F)(F)F.O=C(O)C(F)(F)F", "Percent Effect", 11.11],
  ["c1cnn(CCNCc2csc(-c3ccsc3)n2)c1", "Percent Effect", -2.857],
  ["O=C(Cc1ccccc1O)Nc1ccc(N2CCCC2)nc1", "Percent Effect", -5.098],
  ["CC(Cn1cncc1-c1cnn(Cc2ccccc2)c1)N1CCCCC1.Cl (stereo unspecified)", "Percent Effect", 58.13]
]}

Form field: Percent Effect recorded for Cc1nc(N2CCOCC2)nc2c1CCN(Cc1cccnc1)CC2.O=C(O)C(F)(F)F with Mycobacterium tuberculosis (enter value)
26.93

Form field - read-out: Percent Effect; system: Mycobacterium tuberculosis; submitted item: CCC1CN(CCNS(C)(=O)=O)c2ccccc2O1 (stereo unspecified)
23.74

Item CC(=O)N1CCCC1CCc1ccnc(-c2cncnc2)c1 (stereo unspecified) with Mycobacterium tuberculosis - Percent Effect?
56.86

Quick check: Percent Effect on Mycobacterium tuberculosis, item Cc1nc(N2CCOCC2)nc2c1CCN(Cc1ccsc1)CC2.O=C(O)C(F)(F)F ?
27.7

So what Percent Effect did Cc1nc(N2CCCC2)nc2c1CCN(Cc1ccco1)CC2.O=C(O)C(F)(F)F get with Mycobacterium tuberculosis?
96.95

Write down the reported Percent Effect of c1ccc(-c2nc(CNCCn3cccn3)cs2)cc1 , test system: Mycobacterium tuberculosis.
46.8

Percent Effect of COCc1nc(C2CCN(Cc3ncc[nH]3)CC2)no1 on Mycobacterium tuberculosis?
-22.72

Notebook entry, Mycobacterium tuberculosis assay: Percent Effect of Cc1cc(C)nc(N2CCC(Cn3cc(C(=O)N(C)C)cn3)CC2)n1 = ?
9.732

Query for Mycobacterium tuberculosis: what Percent Effect does the record show for Cc1ccc(-c2nc(CN3C[C@@H](C)NC[C@@H]3C)c(C)o2)s1 ?
12.13

Item: Cc1cccc(CN2CCC3(CCC(C(=O)N(C)C)O3)CC2)n1 (stereo unspecified) Test system: Mycobacterium tuberculosis Read-out: Percent Effect Value: ?
35.49

Reference source: ChEMBL document CHEMBL3988442
